# ASSAY_NAME: Hematic levels at different times after oral administration (absorption)
# Type: in vivo, Wistar rat
# CONDITION_DESCRIPTION: 100 mg/kg expressed as vincamine/apovincamine, 5% carboxymethyl cellulose suspension, 100 mg/kg
Given measured Max. conc. time, output met if it is greater than or equal to 200 min and not met if not.

> print(dat)
                                   compound  class.name
1  CC[C@@]12C=C(C(=O)OC)n3c4c(c5ccccc53)CCN(CCC1)[C@H]42 [Example 21.b, Apovincamine caproate]     not met

Item CC[C@@]12C=C(C(=O)OC)n3c4c(c5ccccc53)CCN(CCC1)[C@H]42 [Example 20.b, Apovincamine theophylline-7-acetate] with Max. conc. time of 200 min or above?
not met

Also, CC[C@@]12C=C(C(=O)OC)n3c4c(c5ccccc53)CCN(CCC1)[C@H]42 [Example 3.b, Apovincamine glucose-1-phosphate] please.
not met

Could you do the same for CC[C@]12CCCN3CCc4c(n(c5ccccc45)[C@@](O)(C(=O)OC)C1)[C@@H]32 [Example 12.a, Vincamine furoate (furan-2-carboxylate)] , please?
not met

Try the compound CC[C@@]12C=C(C(=O)OC)n3c4c(c5ccccc53)CCN(CCC1)[C@H]42 [Example 10.b, Apovincamine pivalate]
met

Also, CC[C@]12CCCN3CCc4c(n(c5ccccc45)[C@@](O)(C(=O)OC)C1)[C@@H]32 [Example 6.a, Vincamine 2,5-dihydroxybenzoate] please.
not met

Next compound: CC[C@@]12C=C(C(=O)OC)n3c4c(c5ccccc53)CCN(CCC1)[C@H]42 [Example 8.b, Apovincamine p-toluensulfonate]
met

Also CC[C@@]12C=C(C(=O)OC)n3c4c(c5ccccc53)CCN(CCC1)[C@H]42 [Example 18.b] , if possible.
not met

* * *

Recorded LD50 values for a group of molecules are listed next.
# ASSAY_NAME: LD50 / acute toxicity, intraperitoneal route
# Type: in vivo
# CONDITION_DESCRIPTION: i.p.
Return type: number; implicit unit mg/kg.

Recorded LD50, per entry:
> print(dat)
                                   molecule  measurement.name  quantitative.result
1  CC[C@]12CCCN3CCc4c(n(c5ccccc45)[C@@](O)(C(=O)OC)C1)[C@@H]32 [Example 29.a, Vincamine dihydroxyphenylalanine (DOPA)]              LD50                 1500
2  CC[C@@]12C=C(C(=O)OC)n3c4c(c5ccccc53)CCN(CCC1)[C@H]42 [Example 26.b, Apovincamine indolyl-3-acetate]              LD50                  750
3  CC[C@@]12C=C(C(=O)OC)n3c4c(c5ccccc53)CCN(CCC1)[C@H]42 [Example 14.b, Apovincamine L(+)-O,O-dibenzoyltartrate]              LD50                 1500
4  CC[C@@]12C=C(C(=O)OC)n3c4c(c5ccccc53)CCN(CCC1)[C@H]42 [Apovincamine, apovincamine]              LD50                 2000
5  CC[C@]12CCCN3CCc4c(n(c5ccccc45)[C@@](O)(C(=O)OC)C1)[C@@H]32 [Example 14.a, Vincamine L(+)-O,O-dibenzoyltartrate]              LD50                  950

What does the data say about its LD50? Entry: CC[C@]12CCCN3CCc4c(n(c5ccccc45)[C@@](O)(C(=O)OC)C1)[C@@H]32 [Example 21.a]
900

Ok, now CC[C@]12CCCN3CCc4c(n(c5ccccc45)[C@@](O)(C(=O)OC)C1)[C@@H]32 [Example 13.a, Vincamine D(+)-camphorsulfonate]
1350

* * *

# ASSAY_NAME: LD50 / acute toxicity, intraperitoneal route
# Type: in vivo
# CONDITION_DESCRIPTION: i.p.; Gleason class in words, classes not defined
Where a name gives a salt, the structure may show the parent alone.
MEASUREMENT_NAME: Toxicity (Gleason)

> print(dat)
                                   compound  result
1  CC[C@]12CCCN3CCc4c(n(c5ccccc45)[C@@](O)(C(=O)OC)C1)[C@@H]32 [Example 29.a, Vincamine dihydroxyphenylalanine (DOPA)]   light
2  CC[C@]12CCCN3CCc4c(n(c5ccccc45)[C@@](O)(C(=O)OC)C1)[C@@H]32 [Example 26.a]  modest
3  CC[C@@]12C=C(C(=O)OC)n3c4c(c5ccccc53)CCN(CCC1)[C@H]42 [Example 26.b, Apovincamine indolyl-3-acetate]  modest
4  CC[C@@]12C=C(C(=O)OC)n3c4c(c5ccccc53)CCN(CCC1)[C@H]42 [Example 2.b, Apovineamine 2,4-dihydroxy-benzoate]  modest
5  CC[C@@]12C=C(C(=O)OC)n3c4c(c5ccccc53)CCN(CCC1)[C@H]42 [Example 4.b]  modest

# get_value(readout='Toxicity (Gleason)', item= CC[C@]12CCCN3CCc4c(n(c5ccccc45)[C@@](O)(C(=O)OC)C1)[C@@H]32 [Example 15.a, nicotinate] )
modest

Input CC[C@]12CCCN3CCc4c(n(c5ccccc45)[C@@](O)(C(=O)OC)C1)[C@@H]32 [Example 27.a, Vincamine hydroquinone]
modest

How about CC[C@@]12C=C(C(=O)OC)n3c4c(c5ccccc53)CCN(CCC1)[C@H]42 [Example 11.b, Apovincamine 4-acetamidobutyrate] ?
light

Quick one: CC[C@@]12C=C(C(=O)OC)n3c4c(c5ccccc53)CCN(CCC1)[C@H]42 [Example 5.b, Apovincamine 2,6-dihydroxybenzoate]
modest

What do we get for CC[C@@]12C=C(C(=O)OC)n3c4c(c5ccccc53)CCN(CCC1)[C@H]42 [Example 3.b, Apovincamine glucose-1-phosphate] ?
modest

Would you mind doing CC[C@@]12C=C(C(=O)OC)n3c4c(c5ccccc53)CCN(CCC1)[C@H]42 [Example 10.b, Apovincamine pivalate] as well?
modest

Same thing, different compound: CC[C@]12CCCN3CCc4c(n(c5ccccc45)[C@@](O)(C(=O)OC)C1)[C@@H]32 [Example 7.a, Vincamine 3,5-dihydroxybenzoate]
modest

How about CC[C@]12CCCN3CCc4c(n(c5ccccc45)[C@@](O)(C(=O)OC)C1)[C@@H]32 [Example 6.a, Vincamine 2,5-dihydroxybenzoate] ?
modest

Ok, now CC[C@@]12C=C(C(=O)OC)n3c4c(c5ccccc53)CCN(CCC1)[C@H]42 [Example 28.b, Apovincamine salicylate]
modest

Now this one: CC[C@@]12C=C(C(=O)OC)n3c4c(c5ccccc53)CCN(CCC1)[C@H]42 [Example 7.b, Apovincamine 3,5-dihydroxybenzoate]
modest

How about this compound: CC[C@]12CCCN3CCc4c(n(c5ccccc45)[C@@](O)(C(=O)OC)C1)[C@@H]32 [Example 18.a, Vincamine enanthate]
modest

// same read-out, input: CC[C@]12CCCN3CCc4c(n(c5ccccc45)[C@@](O)(C(=O)OC)C1)[C@@H]32 [Example 4.a, Vincamine glucose-1-phosphate, acid salt]
modest

Check CC[C@@]12C=C(C(=O)OC)n3c4c(c5ccccc53)CCN(CCC1)[C@H]42 [Example 14.b, Apovincamine L(+)-O,O-dibenzoyltartrate] too.
light

Okay, and CC[C@]12CCCN3CCc4c(n(c5ccccc45)[C@@](O)(C(=O)OC)C1)[C@@H]32 [Example 14.a, Vincamine L(+)-O,O-dibenzoyltartrate] ?
modest

Now this one: CC[C@@]12C=C(C(=O)OC)n3c4c(c5ccccc53)CCN(CCC1)[C@H]42 [Apovincamine, apovincamine]
negligible

Okay, and CC[C@@]12C=C(C(=O)OC)n3c4c(c5ccccc53)CCN(CCC1)[C@H]42 [Example 9.b, Apovincamine clofibrate] ?
light

What do you get for CC[C@@]12C=C(C(=O)OC)n3c4c(c5ccccc53)CCN(CCC1)[C@H]42 [Example 22.b, Apovincamine caprate] ?
light

# iterate: CC[C@]12CCCN3CCc4c(n(c5ccccc45)[C@@](O)(C(=O)OC)C1)[C@@H]32 [Example 22.a, Vincamine caprate]
negligible

Query CC[C@]12CCCN3CCc4c(n(c5ccccc45)[C@@](O)(C(=O)OC)C1)[C@@H]32 [Example 20.a, Vincamine theophylline-7-acetate] next
modest

Follow-up item: CC[C@@]12C=C(C(=O)OC)n3c4c(c5ccccc53)CCN(CCC1)[C@H]42 [Example 21.b, Apovincamine caproate]
light

* * *

# ASSAY_NAME: Hematic levels at different times after oral administration (absorption)
# Format: in vivo, Wistar rat
# CONDITION_DESCRIPTION: rat, blood, po, 100 mg/kg, 100 mg/kg expressed as vincamine/apovincamine, 5% carboxymethyl cellulose suspension, read-out: Max. conc. time (converted)
MEASUREMENT_NAME: Tmax (h)
Reply with just the number (in h).

Given the entry CC[C@@]12C=C(C(=O)OC)n3c4c(c5ccccc53)CC[N+](C)(CCC1)[C@H]42 (some centres unmarked) [Example 17.b, Apovincamine methylsulfate] , report its measured Tmax.
1

Moving on to the next compound: CC[C@]12CCC[N+]3(C)CCc4c(n(c5ccccc45)[C@@](O)(C(=O)OC)C1)[C@H]23 (some centres unmarked) [Example 17.a, Vincamine methylsulfate]
1
